# ASSAY TARGET: DLG2_3, Q15700
# ASSAY SUMMARY: holdup assay
# Parameters: key: below the threshold = too weak to quantify, mostly under pKd 3.1 to 4
# EXPERIMENTAL CONDITIONS: plain residues with an end cap or a label only (N-terminal biotin on a linker: ado-ado)
Kindly supply the reported pKd values for the records listed here.
In your answer, state the number alone without any accompanying words.

Item THHRKIHTRV [ZNF599, Q96NL3] has what recorded pKd?
4.41

// repeat for PEKVSNTTVV [IGSF5, Q9NSI5] and report
3.83

Would you kindly repeat that for NNMAFETTHF [SLC5A12, Q1EHB4] ?
3.7

Input GQNMTVSVVI [PRLHR, P49683]
3.74
